Cited source for all entries: ChEMBL document CHEMBL1201862

test system: UACC-257; experiment: NCI tumour cell line growth inhibition, 48 h
Activity calls are given as the source filed them. No stated cut-off is given here; in the data, active = GI50 up to about 1.1 µM and inactive = higher.
Classes used: 1 (active), 0 (inactive)

{"COMPOUND": "CCCCCCCCC/C=C1\\CC(CO)(COC(=O)c2ccccc2)OC1=O (stereo not given)", "CLASS_ASSIGNMENT": 0}
{"COMPOUND": "Cc1nc2c(n1-c1ccccc1)C(=O)c1ccccc1C2=O", "CLASS_ASSIGNMENT": 0}
{"COMPOUND": "C[N+](C)(C)CC(=O)N/N=C(/Cc1nc2c3c(ccc2nc1O)C(=O)c1ccccc1C3=O)C(=O)Nc1ccc(Cl)c(Cl)c1", "CLASS_ASSIGNMENT": 0}
{"COMPOUND": "Cc1ccccc1OC(C)C(=O)NN1C(=O)CSC1c1ccc(Cl)cc1 (stereo not given)", "CLASS_ASSIGNMENT": 0}
{"COMPOUND": "CCOC(=O)NNC(=O)NCc1ccccc1CNC(=O)NNC(=O)OCC", "CLASS_ASSIGNMENT": 0}
{"COMPOUND": "CC1=C(C#N)c2nc3ccccc3n2C(=O)C1(C)CCO (stereo not given)", "CLASS_ASSIGNMENT": 0}
{"COMPOUND": "CCCCSC1=N/C(=C\\c2ccc(N(C)C)cc2)C(=O)N1", "CLASS_ASSIGNMENT": 0}
{"COMPOUND": "Cc1ccc(/C(Cl)=C/C=C(C#N)C#N)cc1", "CLASS_ASSIGNMENT": 0}
{"COMPOUND": "C[C@@H](C(=O)O)N1C(c2ccco2)=C(/C(C=O)=C\\c2ccco2)C(=O)/C1=C\\c1ccco1", "CLASS_ASSIGNMENT": 0}
{"COMPOUND": "COc1ccc(C2[C@H]3C(=O)N(c4ccc(Cc5ccc(N6C(=O)[C@@H]7ON(c8ccccc8)C(c8ccc(OC)cc8)[C@@H]7C6=O)cc5)cc4)C(=O)[C@H]3ON2c2ccccc2)cc1 (stereo not given in full)", "CLASS_ASSIGNMENT": 0}
{"COMPOUND": "COc1cc([C@@H]2c3cc4c(cc3[C@@H](Nc3ccc(NC(=O)c5cc([N+](=O)[O-])cn5C)cc3)[C@H]3COC(=O)[C@H]23)OCO4)cc(OC)c1O", "CLASS_ASSIGNMENT": 1}
{"COMPOUND": "Sc1nnc(C(c2ccccc2)c2ccccc2)[nH]1", "CLASS_ASSIGNMENT": 0}
{"COMPOUND": "Cn1c(NNc2ccccc2)cc(=O)[nH]c1=O", "CLASS_ASSIGNMENT": 0}
{"COMPOUND": "O=C(c1ccccc1O)c1cc(-c2ncc3c(=O)c4ccccc4oc3n2)c(-c2ccccc2O)[nH]c1=O", "CLASS_ASSIGNMENT": 0}
{"COMPOUND": "CC1(C)C2CC3C4CC5(Nc6ccccc6C5N41)[C@]3(C)CC2=O (stereo not given in full)", "CLASS_ASSIGNMENT": 0}
{"COMPOUND": "CN1C(=O)C(O)CC1c1ccccc1F (stereo not given)", "CLASS_ASSIGNMENT": 0}
{"COMPOUND": "O=C(NN=C(c1ccccc1)c1ccccc1)/C(O)=C/C(=O)c1ccc(Cl)cc1", "CLASS_ASSIGNMENT": 0}
{"COMPOUND": "Oc1cc(-c2ccc(Oc3ccccc3)cc2)nc2cc3c(cc12)OCO3", "CLASS_ASSIGNMENT": 0}
{"COMPOUND": "CCOC(=O)N1CCN(C=S)CC1", "CLASS_ASSIGNMENT": 0}
{"COMPOUND": "CC(C)(C)CC(C)(C)c1cc(O)c(O)c(CN2CCCCC2)c1", "CLASS_ASSIGNMENT": 0}
